All values here come from paper PMC3869726.

Biological target: Human neutrophil elastase (HNE) (Homo sapiens, UniProt P08246)
Construct: HNE (EC 3.4.21.37) from human leukocytes was purchased; purchased Innovative Research Company (Novi, Michigan); host or cells: human leukocytes (natural source)
Sequence (P08246 30-247 limits assumed): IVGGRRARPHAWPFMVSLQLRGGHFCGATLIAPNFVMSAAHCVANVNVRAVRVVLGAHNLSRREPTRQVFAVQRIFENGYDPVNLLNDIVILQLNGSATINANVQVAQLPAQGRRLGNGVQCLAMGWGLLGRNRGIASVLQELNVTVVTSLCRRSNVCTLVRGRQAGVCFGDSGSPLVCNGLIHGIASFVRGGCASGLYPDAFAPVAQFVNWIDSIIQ
Assay: HNE activity inhibitory bioassay (MeO-Suc-Ala-Ala-Pro-Val-pNA hydrolysis, absorbance 405 nm)
Format: biochemical
Settings: 100 μM; tetracyclic triterpenoids (Table S3)
metricName: inhibition at 100 µM (%)
Answer in %, number only, no unit symbol.

query: Consider the molecule CC(=O)OC(C)(C)/C=C/C(=O)[C@](C)(O)[C@H]1[C@H](O)C[C@@]2(C)[C@@H]3CC=C4[C@@H](C[C@H](O)C(=O)C4(C)C)[C@]3(C)C(=O)C[C@]12C . State its measured inhibition at 100 µM.
result: 5.77

query: Consider the molecule CC(C)C1=CC(=O)C(C)(C2[C@H](O)C[C@@]3(C)[C@@H]4CC=C5[C@@H](CC[C@@H](OC6OCC(O)C(O)C6OC6OC(C)C(O)C(O)C6O)C5(C)C)[C@]4(C)C(=O)C[C@]23C)O1 (stereo partly drawn) . State its measured inhibition at 100 µM.
result: 0.8

query: Consider the molecule CC(=O)OC1CC(O)C23COC(O)C1(C)C2CC(O)C1(C)C3C(=O)C(OC(C)=O)C2(C)C(c3ccoc3)CC3OC321 (stereo not drawn) . State its measured inhibition at 100 µM.
result: 4.28

query: Consider the molecule CC(C)=CCCC(C)(OC1OC(CO)C(O)C(O)C1O)C1CCC2(C)C1C(O)CC1C3(C)CCC(O)C(C)(C)C3C(OC3OC(CO)C(O)C(O)C3OC3OC(C)C(O)C(O)C3O)CC12C (stereo not drawn) . State its measured inhibition at 100 µM.
result: 4.01

query: Consider the molecule CC(C)(O)[C@@H]1CC[C@](C)([C@H]2[C@@H](O)C[C@@]3(C)[C@@H]4C[C@H](O[C@@H]5O[C@H](CO)[C@@H](O)[C@H](O)[C@H]5O)[C@H]5C(C)(C)[C@@H](O[C@@H]6OC[C@@H](O)[C@H](O)[C@H]6O)CC[C@@]56C[C@@]46CC[C@]23C)O1 [Compound 7, astragaloside IV] . State its measured inhibition at 100 µM.
result: 3.27

query: Consider the molecule CC(C)=CCCC1(C)CCC2(C)C3CCC4(C)C(C)C(=O)CCC4C3(C)CCC2(C)C1 (stereo not drawn) . State its measured inhibition at 100 µM.
result: 2.33
